Target: MARK4 (human) (UniProt Q96L34)
Sequence (Q96L34 whole entry, looked up): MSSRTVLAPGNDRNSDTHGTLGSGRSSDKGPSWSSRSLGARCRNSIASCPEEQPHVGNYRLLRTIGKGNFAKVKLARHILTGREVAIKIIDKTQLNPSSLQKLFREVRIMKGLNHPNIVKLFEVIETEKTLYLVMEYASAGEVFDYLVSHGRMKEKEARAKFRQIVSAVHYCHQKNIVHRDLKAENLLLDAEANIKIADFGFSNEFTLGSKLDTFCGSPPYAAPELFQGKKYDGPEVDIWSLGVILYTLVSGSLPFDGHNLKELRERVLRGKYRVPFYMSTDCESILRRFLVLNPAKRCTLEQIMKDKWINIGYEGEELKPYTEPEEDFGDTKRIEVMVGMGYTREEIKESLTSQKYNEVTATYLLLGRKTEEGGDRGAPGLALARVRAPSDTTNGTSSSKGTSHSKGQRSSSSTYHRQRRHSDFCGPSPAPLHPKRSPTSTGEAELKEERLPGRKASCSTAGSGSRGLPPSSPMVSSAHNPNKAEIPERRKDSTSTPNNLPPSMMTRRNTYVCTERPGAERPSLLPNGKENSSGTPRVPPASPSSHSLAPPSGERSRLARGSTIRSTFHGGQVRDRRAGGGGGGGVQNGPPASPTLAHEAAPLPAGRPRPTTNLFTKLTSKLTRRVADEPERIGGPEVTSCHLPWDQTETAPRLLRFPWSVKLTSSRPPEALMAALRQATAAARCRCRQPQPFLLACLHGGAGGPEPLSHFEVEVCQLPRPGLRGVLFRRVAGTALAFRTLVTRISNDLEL
Assay: radiometric filter-binding kinase assay
Settings: compound 10.0 µM
measurement_name: residual activity (%)

line_notation: NC(=O)c1cc2c(-c3cccc(-c4ccccc4)c3)cnc(N)c2s1
units_label: %
residual activity: 46

line_notation: C=CC(=O)N1CCC[C@@H](n2nc(-c3ccc(Oc4ccccc4)cc3)c3c(N)ncnc32)C1
units_label: %
residual activity: 80

line_notation: NC(=O)c1ccc(-c2ccc(Oc3cncc4sc(-c5nn[nH]n5)cc34)cc2)cc1
units_label: %
residual activity: 78

A: CCCCCc1ccc(/C=C/[C@H](O)[C@@H](CO)NC)cc1
B: Cc1ccc(Sc2cnc(Nc3cccc(Br)n3)s2)cc1C(=O)N1CCN(C(=O)CN)CC1
Exam item: Task for the reader: decide whether A or B has the larger residual activity. Please indicate the selected item by its label.
Marked response: A

----------
Molecular target: MARK3 (human) (UniProt P27448)
Sequence (P27448 whole entry, looked up): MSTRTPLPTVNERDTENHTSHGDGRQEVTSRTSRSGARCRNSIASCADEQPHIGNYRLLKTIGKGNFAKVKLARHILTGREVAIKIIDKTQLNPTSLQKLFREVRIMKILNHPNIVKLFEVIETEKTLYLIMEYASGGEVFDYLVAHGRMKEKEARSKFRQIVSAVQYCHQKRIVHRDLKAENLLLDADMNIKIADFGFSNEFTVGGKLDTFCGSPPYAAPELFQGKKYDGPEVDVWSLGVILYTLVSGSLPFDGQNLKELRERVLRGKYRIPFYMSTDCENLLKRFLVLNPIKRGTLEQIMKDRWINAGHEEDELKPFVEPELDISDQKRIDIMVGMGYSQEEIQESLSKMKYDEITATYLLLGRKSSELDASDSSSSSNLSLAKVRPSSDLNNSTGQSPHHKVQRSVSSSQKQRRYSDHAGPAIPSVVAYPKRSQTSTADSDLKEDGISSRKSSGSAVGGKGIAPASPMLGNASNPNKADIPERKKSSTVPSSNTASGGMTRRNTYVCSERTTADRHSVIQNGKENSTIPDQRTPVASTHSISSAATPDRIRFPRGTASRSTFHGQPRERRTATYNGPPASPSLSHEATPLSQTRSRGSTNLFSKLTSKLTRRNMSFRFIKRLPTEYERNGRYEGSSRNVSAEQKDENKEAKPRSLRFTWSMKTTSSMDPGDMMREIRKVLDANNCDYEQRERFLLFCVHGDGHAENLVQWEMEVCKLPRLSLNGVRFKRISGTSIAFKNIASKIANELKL
Test: radiometric filter-binding kinase assay
Details: compound 10.0 µM
measurement_name: residual activity (%)

Worked set:
compound: Oc1ccc2ccccc2c1SSc1c(O)ccc2ccccc12
target_entity: MARK3 (human) (UniProt P27448)
units_label: %
residual activity: 69

compound: NC(=O)Nc1ccc2c(c1)/C(=C/c1cc(-c3cccnc3)c[nH]1)C(=O)N2
target_entity: MARK3 (human) (UniProt P27448)
units_label: %
residual activity: 3

compound: O=S(=O)(c1ccc(F)c2nonc12)N1CCN(c2ncc(C(F)(F)F)cc2Cl)CC1
target_entity: MARK3 (human) (UniProt P27448)
units_label: %
residual activity: 106

compound: COc1cc(C(=O)N2CCOCC2)c(F)cc1Nc1ncc(C(F)(F)F)c(NC2CC2)n1
target_entity: MARK3 (human) (UniProt P27448)
units_label: %
residual activity: 61

compound: NCC(=O)Nc1ccc(-n2nc(C(F)(F)F)cc2-c2ccc3c(ccc4ccccc43)c2)cc1
target_entity: MARK3 (human) (UniProt P27448)
units_label: %
residual activity: 101

P: Cc1ccc(Sc2cnc(Nc3cccc(Br)n3)s2)cc1C(=O)N1CCN(C(=O)CN)CC1
Q: O=C(Nc1ccccc1-c1cn2c(CN3CCNCC3)csc2n1)c1cnc2ccccc2n1
Exam item: Of P and Q , whose reported residual activity is the larger number? Refer to your chosen item by its label in the answer.
Marked response: Q
(Q: 99%, P: 57%)

----------
Target: IKBKB (human)
Assay: radiometric filter-binding kinase assay
Conditions: compound 1.0 µM
measurement_name: residual activity (%)

molecule: O=C(N[C@@H](COc1ccc2[nH]c(=O)[nH]c2c1)c1ccccc1)c1cccn(Cc2ccc(F)c(F)c2)c1=O
residual activity [%]: 99
//
molecule: CCc1cncnc1N1CCN(Cc2nc3cc(C(F)(F)F)ccc3[nH]2)CC1
residual activity [%]: 119
//
molecule: Cc1cccc(Nc2nn(C)c3ncnc(N)c23)c1
residual activity [%]: 101

A: O=C(O)c1cc(N=Nc2ccc(S(=O)(=O)Nc3ccccn3)cc2)ccc1O
B: COc1ccc(-n2ncc3cnc(Nc4cc(OC)c(OC)c(OCCCN5CCN(C)CC5)c4)nc32)cc1
Exam item: Compare residual activity: is it lower for A or for B ? Please identify the chosen entry by its label.
Marked response: B
(B: 55%, A: 107%)

A: NC(=O)c1c(NC(=O)C2CC2)sc2c1CCCC2
B: N#Cc1c(C2CCNCC2)cc(-c2c(O)cccc2OCC2CC2)nc1N
Exam item: Consider A and B . Which of these has its residual activity at a higher number? In your reply, give the label of the chosen option.
Marked response: A
(A: 100%, B: 6%)

----------
Target: MINK1 (human) (UniProt Q8N4C8)
Sequence (Q8N4C8 whole entry, looked up): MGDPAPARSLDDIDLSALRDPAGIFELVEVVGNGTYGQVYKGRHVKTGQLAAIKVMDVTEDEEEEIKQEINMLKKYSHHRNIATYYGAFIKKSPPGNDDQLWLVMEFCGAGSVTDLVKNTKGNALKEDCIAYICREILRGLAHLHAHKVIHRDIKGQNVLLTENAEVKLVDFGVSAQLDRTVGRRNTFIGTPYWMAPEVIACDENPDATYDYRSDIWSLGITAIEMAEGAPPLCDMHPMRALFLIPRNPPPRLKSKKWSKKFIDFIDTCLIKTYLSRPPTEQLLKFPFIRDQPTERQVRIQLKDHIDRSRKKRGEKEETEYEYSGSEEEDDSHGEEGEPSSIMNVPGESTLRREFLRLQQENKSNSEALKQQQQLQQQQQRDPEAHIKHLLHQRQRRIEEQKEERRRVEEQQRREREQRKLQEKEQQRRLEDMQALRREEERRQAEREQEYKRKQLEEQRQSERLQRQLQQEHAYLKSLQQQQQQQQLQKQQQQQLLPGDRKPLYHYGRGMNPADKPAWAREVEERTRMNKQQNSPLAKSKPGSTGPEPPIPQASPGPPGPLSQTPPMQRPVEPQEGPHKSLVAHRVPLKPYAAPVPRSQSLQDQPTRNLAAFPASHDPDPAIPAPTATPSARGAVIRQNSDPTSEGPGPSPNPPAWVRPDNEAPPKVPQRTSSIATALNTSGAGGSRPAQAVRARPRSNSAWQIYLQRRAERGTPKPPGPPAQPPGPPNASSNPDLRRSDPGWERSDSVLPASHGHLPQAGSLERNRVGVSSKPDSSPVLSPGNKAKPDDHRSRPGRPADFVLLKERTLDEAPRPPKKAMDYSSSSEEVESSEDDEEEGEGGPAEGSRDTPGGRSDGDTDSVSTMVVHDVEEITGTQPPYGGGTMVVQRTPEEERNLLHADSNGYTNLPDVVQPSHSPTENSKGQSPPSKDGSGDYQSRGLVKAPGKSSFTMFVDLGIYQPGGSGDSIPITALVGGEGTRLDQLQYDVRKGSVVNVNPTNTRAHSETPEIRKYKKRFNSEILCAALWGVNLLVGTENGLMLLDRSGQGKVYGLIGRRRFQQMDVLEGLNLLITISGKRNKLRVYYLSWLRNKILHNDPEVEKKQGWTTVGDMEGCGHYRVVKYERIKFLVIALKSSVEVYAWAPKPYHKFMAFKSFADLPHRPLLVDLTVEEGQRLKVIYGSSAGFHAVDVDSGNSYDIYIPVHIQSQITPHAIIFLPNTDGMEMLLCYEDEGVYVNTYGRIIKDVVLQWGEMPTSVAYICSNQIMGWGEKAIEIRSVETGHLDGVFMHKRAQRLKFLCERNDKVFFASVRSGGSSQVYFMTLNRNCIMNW
Test: radiometric filter-binding kinase assay
Conditions: compound 10.0 µM
measurement_name: residual activity (%)

Answered examples (4):
line_notation: Cc1ccc(=O)n(-c2ccccc2)c1
target_entity: MINK1 (human) (UniProt Q8N4C8)
residual activity (%): 108
//
line_notation: CCCC(CCC)C(=O)O
target_entity: MINK1 (human) (UniProt Q8N4C8)
residual activity (%): 68
//
line_notation: CCOC(=O)c1ccc(N2NC(=O)/C(=C/c3ccc([N+](=O)[O-])o3)C2=O)cc1
target_entity: MINK1 (human) (UniProt Q8N4C8)
residual activity (%): 73
//
line_notation: CNc1nc(-c2ccc3c(N)n[nH]c3c2)cc(N2C[C@@H](C(=O)NC3CCCCC3)CC[C@H]2C)n1
target_entity: MINK1 (human) (UniProt Q8N4C8)
residual activity (%): 74

A: CCNc1nc(Nc2cc(F)c(C(=O)N3CCOCC3)cc2OC)ncc1C(F)(F)F
B: O=C(Nc1ccccc1-c1cn2c(CN3CCNCC3)csc2n1)c1cnc2ccccc2n1
Exam item: Hi there! Just curious which has the higher residual activity between A and B . The response must carry the label of the picked entry.
Marked response: A
(A: 93%, B: 55%)

----------
Target: UniProtKB Q9P289
Sequence (Q9P289 whole entry, looked up): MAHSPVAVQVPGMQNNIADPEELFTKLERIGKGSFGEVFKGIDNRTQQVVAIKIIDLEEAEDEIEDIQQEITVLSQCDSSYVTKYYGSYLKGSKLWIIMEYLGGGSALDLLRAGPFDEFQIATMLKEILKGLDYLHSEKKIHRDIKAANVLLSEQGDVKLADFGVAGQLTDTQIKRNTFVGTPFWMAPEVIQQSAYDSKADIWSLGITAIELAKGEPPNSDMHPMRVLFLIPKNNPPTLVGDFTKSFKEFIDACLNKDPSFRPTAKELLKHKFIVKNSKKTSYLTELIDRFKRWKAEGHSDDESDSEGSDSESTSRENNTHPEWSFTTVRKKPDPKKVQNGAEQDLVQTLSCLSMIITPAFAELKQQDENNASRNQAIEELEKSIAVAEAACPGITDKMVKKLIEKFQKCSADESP
Assay: radiometric filter-binding kinase assay
Settings: compound 10.0 µM
measurement_name: residual activity (%)

Consider the worked cases shown below.
compound: c1ccc2c(-c3cnn4cc(-c5ccc(N6CCNCC6)cc5)cnc34)ccnc2c1
residual activity / %: 181
//
compound: CCCC(CCC)C(=O)O
residual activity / %: 102

P: CN1C(=O)[C@@H](Cc2c[nH]c3ccccc23)NC1=S
Q: Cc1ccc(Sc2cnc(Nc3cccc(Br)n3)s2)cc1C(=O)N1CCN(C(=O)CN)CC1
Exam item: Between P and Q , whose recorded residual activity is greater? State your choice using its label.
Marked response: P
(P: 112%, Q: 17%)

----------
Molecular target: PKN2 (human)
Assay: radiometric filter-binding kinase assay
Settings: compound 1.0 µM
measurement_name: residual activity (%)

Worked examples, 2 compounds total:
compound: O=C(Nc1nc2cc(C(F)(F)F)cc(NC3CC3)n2n1)c1cccnc1
measurement_name: residual activity
quantitative_result: 75
--
compound: CNc1nc(-c2ccc3c(N)n[nH]c3c2)cc(N2C[C@@H](C(=O)NC3CCCCC3)CC[C@H]2C)n1
measurement_name: residual activity
quantitative_result: 118

1: Oc1ccc2ccccc2c1SSc1c(O)ccc2ccccc12
2: O=c1c(O)c(-c2ccc(O)c(O)c2)oc2cc(O)c(O)c(O)c12
Exam item: When the recorded residual activity values are compared, which is smaller: that of 1 or that of 2 ? Answer by stating the label of the chosen item.
Marked response: 1

P: COc1cc(C(=O)N2CCOCC2)c(F)cc1Nc1ncc(C(F)(F)F)c(NC2CC2)n1
Q: Cc1nc(-c2ccc(OCC(C)C)c(C#N)c2)sc1C(=O)O
Exam item: Problem: Given the entries P and Q , determine which has the lower reported residual activity. # reply format: chosen label
Marked response: P
(P: 84%, Q: 120%)

A: FC(F)(F)c1ccc(-c2ccc(Oc3cncc4sc(-c5nn[nH]n5)cc34)cc2)cc1
B: NC(=O)c1cc(-c2ccnc(NC3CCCCC3)c2)nc(N2CCNCC2)c1
Exam item: Which has the higher residual activity, A or B ? Give the chosen item's label as your response.
Marked response: A

a: C=C1C(=O)OC2C1CC/C(C)=C/CCC1(C)OC21 (centres undefined)
b: O=C1Nc2nc(-c3c(O)cccc3OCC3CC3)cc(C3CCCNC3)c2CO1 (centres undefined)
Exam item: # query: argmin of residual activity over a and b Refer to your chosen item by its label in the answer.
Marked response: b
(b: 69%, a: 106%)

----------
Target: BRSK1 (human) (UniProt Q8TDC3)
Sequence (Q8TDC3 whole entry, looked up): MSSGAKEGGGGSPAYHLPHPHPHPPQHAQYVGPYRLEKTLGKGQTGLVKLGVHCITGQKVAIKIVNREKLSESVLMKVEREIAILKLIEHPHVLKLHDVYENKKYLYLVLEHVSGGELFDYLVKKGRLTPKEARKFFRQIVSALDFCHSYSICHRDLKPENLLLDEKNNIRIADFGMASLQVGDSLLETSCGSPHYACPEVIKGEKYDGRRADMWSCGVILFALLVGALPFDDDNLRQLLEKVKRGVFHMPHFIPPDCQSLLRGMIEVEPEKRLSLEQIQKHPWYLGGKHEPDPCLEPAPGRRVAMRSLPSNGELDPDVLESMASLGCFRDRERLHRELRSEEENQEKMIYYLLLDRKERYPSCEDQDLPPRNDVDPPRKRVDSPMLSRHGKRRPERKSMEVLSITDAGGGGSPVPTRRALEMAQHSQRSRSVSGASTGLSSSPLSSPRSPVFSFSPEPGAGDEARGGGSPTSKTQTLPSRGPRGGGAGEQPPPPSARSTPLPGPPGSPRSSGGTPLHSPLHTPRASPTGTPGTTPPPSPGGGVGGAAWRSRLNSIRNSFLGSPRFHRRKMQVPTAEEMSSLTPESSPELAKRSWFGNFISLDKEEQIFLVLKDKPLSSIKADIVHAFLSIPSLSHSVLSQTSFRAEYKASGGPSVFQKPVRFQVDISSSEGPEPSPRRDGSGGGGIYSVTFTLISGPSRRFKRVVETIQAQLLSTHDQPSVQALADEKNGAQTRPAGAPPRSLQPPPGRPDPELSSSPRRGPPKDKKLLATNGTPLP
Experiment: radiometric filter-binding kinase assay
Conditions: compound 0.1 µM
measurement_name: residual activity (%)

line_notation: Cc1ccc(-c2ccc3c(ccc4sc5c(c43)NC[C@@H](C)NC5=O)n2)cn1
units_label: %
residual activity: 86
--
line_notation: CCCCCc1ccc(/C=C/[C@H](O)[C@@H](CO)NC)cc1
units_label: %
residual activity: 114
--
line_notation: O=C(NCCCNc1nc(Nc2cccc(CN3CCOCC3)c2)ncc1C1CC1)C1CCC1
units_label: %
residual activity: 99

----------
Molecular target: MELK (human) (UniProt Q14680)
Sequence (Q14680 whole entry, looked up): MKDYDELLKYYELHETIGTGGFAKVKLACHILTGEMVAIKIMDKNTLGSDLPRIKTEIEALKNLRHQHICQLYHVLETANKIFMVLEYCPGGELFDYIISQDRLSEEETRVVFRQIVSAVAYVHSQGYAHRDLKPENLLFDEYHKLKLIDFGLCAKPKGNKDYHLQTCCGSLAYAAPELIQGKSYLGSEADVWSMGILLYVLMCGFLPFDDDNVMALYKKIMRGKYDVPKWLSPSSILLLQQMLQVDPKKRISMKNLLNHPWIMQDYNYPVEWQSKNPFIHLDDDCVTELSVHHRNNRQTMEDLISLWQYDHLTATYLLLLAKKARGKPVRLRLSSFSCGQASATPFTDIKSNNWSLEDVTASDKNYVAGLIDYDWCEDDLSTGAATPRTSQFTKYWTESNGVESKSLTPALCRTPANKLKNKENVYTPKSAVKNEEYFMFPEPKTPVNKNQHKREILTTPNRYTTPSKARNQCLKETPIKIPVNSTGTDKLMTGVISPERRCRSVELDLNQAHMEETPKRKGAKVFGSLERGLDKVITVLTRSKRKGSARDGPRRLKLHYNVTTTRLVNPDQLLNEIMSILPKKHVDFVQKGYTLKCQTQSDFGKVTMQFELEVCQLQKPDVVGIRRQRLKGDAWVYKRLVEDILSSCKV
Experiment: radiometric filter-binding kinase assay
Details: compound 10.0 µM
measurement_name: residual activity (%)

A selection of reference data follows.
line_notation: CCc1cncnc1N1CCN(Cc2nc3cc(C(F)(F)F)ccc3[nH]2)CC1
units_label: %
quantitative_result: 87
//
line_notation: O=C(Nc1ccccc1-c1cn2c(CN3CCNCC3)csc2n1)c1cnc2ccccc2n1
units_label: %
quantitative_result: 52
//
line_notation: Cc1ccc(=O)n(-c2ccccc2)c1
units_label: %
quantitative_result: 98

I: N#Cc1c(C2CCNCC2)cc(-c2c(O)cccc2OCC2CC2)nc1N
II: NC(=O)c1c(NC(=O)C2CC2)sc2c1CCCC2
Exam item: Which numeric residual activity is bigger, that of I or that of II ? Your answer should be the label of the entry you select.
Marked response: II
(II: 44%, I: 29%)
